Recorded values, source patent US10899774B2.

target: human IRAK4 (Homo sapiens (Human)); experiment: IRAK4 kinase inhibition, Transcreener fluorescence polarization (ADP detection); settings: recombinant full-length His6-IRAK4; 1.25 nM IRAK4; 125 μM ATP; 90 min; ATP Km 642 μM
# strict inequality: Ki < 300 nM yields Condition met, everything else yields Condition not met

{"columns": ["molecule", "class name"],
 "data": [
  ["Cc1nc2c(C(=O)Nc3cc4c(cc3N3CCOCC3)OC(C)(C)C4)cncc2[nH]1", "Condition met"],
  ["CC1(C)Cc2cc(NC(=O)c3ccncn3)c(N3CCOCC3)cc2O1", "Condition met"],
  ["CC1(C)Cc2cc(NC(=O)c3ccccn3)c(N3CCOCC3)cc2O1", "Condition met"],
  ["CC1(C)COc2cc(C(=O)Nc3cc4c(cc3N3CCOCC3)OC(C)(CO)C4)nn2C1 (centres unmarked)", "Condition not met"],
  ["CC1(C)Cc2cc(NC(=O)c3cncc4[nH]cnc34)c(N3CCOCC3)cc2O1", "Condition met"],
  ["Cn1nnc2c(C(=O)Nc3cc4c(cc3N3CCOCC3)O[C@@](C)(CO)C4)cncc21 (single isomer, unassigned)", "Condition met"],
  ["CC1(C)Cc2cc(NC(=O)c3cnsn3)c(N3CCOCC3)cc2O1", "Condition not met"],
  ["Cc1ccc(-c2cc3c(cc2NC(=O)c2cnc(C)o2)CC(C)(C)O3)nc1", "Condition met"]
]}

* * *

Target: human IRAK4 (Homo sapiens (Human))
Assay: IRAK4 kinase inhibition, Transcreener fluorescence polarization (ADP detection)
Details: recombinant full-length His6-IRAK4; 1.25 nM IRAK4; 125 μM ATP; 90 min; ATP Km 642 μM
Experimental: Compounds were assayed for inhibition of human IRAK4 and IRAK1 catalytic activity using recombinant enzyme produced from insect cells. Full-length IRAK4 protein, carrying an N-terminal His6-Tag, was obtained from Life Technologies (Carlsbad, Calif., USA). The IRAK1 construct was produced internally and was comprised of IRAK1 residues Arg194 to Ser712, preceded by an NH2-terminal His6 tag and the coding sequence for glutathione-S-transferase. […]
pKi: −log10 of the molar value.
// reported pKi for each item listed

{"columns": ["compound", "pKi"],
 "data": [
  ["C[C@]1(CO)Cc2cc(NC(=O)c3csc4cc(Cl)cnc34)c(N3CCOCC3)cc2O1 (stereo in doubt)", 7.43],
  ["CC1COc2c(C(=O)Nc3cc4c(cc3N3CCOCC3)OC(C)(CO)C4)cnn2C1 (stereo not shown)", 6.41],
  ["CC1(C)Cc2cc(NC(=O)c3cnn4ccc(=O)[nH]c34)c(N3CCOCC3)cc2O1", 6.03],
  ["Cc1cn(-c2nc(C(=O)Nc3cc4c(cc3N3CCOCC3)OC(C)(C)C4)co2)cn1", 8.43],
  ["CC1(C)Cc2cc(NC(=O)c3csc(N4CCOCC4)n3)c(N3CCOCC3)cc2O1", 8.42],
  ["CC1(C)Cc2cc(NC(=O)c3coc(N4CCOCC4)n3)c(N3CCOCC3)cc2O1", 8.28],
  ["Cc1ccc(C(=O)Nc2cc3c(cc2N2CCOCC2)OC(C)(C)C3)o1", 7.64],
  ["CC1(C)Cc2cc(NC(=O)c3cccc4[nH]cnc34)c(N3CCOCC3)cc2O1", 7.52],
  ["CCn1nnc2c(C(=O)Nc3cc4c(cc3N3CCOCC3)OC(C)(C)C4)cncc21", 6.66],
  ["CC1(C)Cc2cc(NC(=O)c3ccn(-c4ccnc(CO)c4)n3)c(N3CCOCC3)cc2O1", 8.80],
  ["Cc1cnc(C(=O)Nc2cc3c(cc2N2CCOCC2)OC(C)(C)C3)[nH]1", 6.54],
  ["Cn1nnc2c(C(=O)Nc3cc4c(cc3N3CCOCC3)O[C@](C)(CO)C4)cncc21 (single isomer, unassigned)", 7.15],
  ["C[C@@]1(CO)Cc2cc(NC(=O)c3ccc4cncnn34)c(N3CCOCC3)cc2O1 (single isomer, unassigned)", 8.44],
  ["Cn1nnc2c(C(=O)Nc3cc4c(cc3N3CCOCC3)OC(C)(C)C4)cncc21", 7.11],
  ["CC1(C)Cc2cc(NC(=O)c3coc(C(C)(C)C)n3)c(N3CCOCC3)cc2O1", 7.37],
  ["CC1(C)Cc2cc(NC(=O)c3ccn(-c4ccc(=O)[nH]c4)n3)c(N3CCOCC3)cc2O1", 7.85]
]}

* * *

target: human IRAK4 (Homo sapiens (Human)); test: IRAK4 kinase inhibition, Transcreener fluorescence polarization (ADP detection); conditions: recombinant full-length His6-IRAK4; 1.25 nM IRAK4; 125 μM ATP; 90 min; ATP Km 642 μM
// reported Ki for each item listed

{"columns": ["compound", "Ki"],
 "data": [
  ["CC1(C)Cc2cc(NC(=O)c3ccn(-c4ccnc(NCC(F)(F)F)c4)n3)c(N3CCOCC3)cc2O1 [Example 62]", "17 nM"],
  ["Cn1ccc(C(=O)Nc2cc3c(cc2N2CCOCC2)O[C@](C)(CO)C3)n1 (single isomer, unassigned) [Example 16]", "48 nM"],
  ["CC1(C)Cc2cc(NC(=O)c3cccc4[nH]c(CO)nc34)c(N3CCOCC3)cc2O1 [Example 40]", "28 nM"],
  ["CC1(C)Cc2cc(NC(=O)c3ccc(O)nn3)c(N3CCOCC3)cc2O1 [Example 2]", "30 nM"]
]}

* * *

target: human IRAK4 (Homo sapiens (Human), UniProt Q9NWZ3); assay: IRAK4 kinase inhibition, Transcreener fluorescence polarization (ADP detection); details: recombinant full-length His6-IRAK4; 1.25 nM IRAK4; 125 μM ATP; 90 min; ATP Km 642 μM
Sequence (Q9NWZ3 whole entry): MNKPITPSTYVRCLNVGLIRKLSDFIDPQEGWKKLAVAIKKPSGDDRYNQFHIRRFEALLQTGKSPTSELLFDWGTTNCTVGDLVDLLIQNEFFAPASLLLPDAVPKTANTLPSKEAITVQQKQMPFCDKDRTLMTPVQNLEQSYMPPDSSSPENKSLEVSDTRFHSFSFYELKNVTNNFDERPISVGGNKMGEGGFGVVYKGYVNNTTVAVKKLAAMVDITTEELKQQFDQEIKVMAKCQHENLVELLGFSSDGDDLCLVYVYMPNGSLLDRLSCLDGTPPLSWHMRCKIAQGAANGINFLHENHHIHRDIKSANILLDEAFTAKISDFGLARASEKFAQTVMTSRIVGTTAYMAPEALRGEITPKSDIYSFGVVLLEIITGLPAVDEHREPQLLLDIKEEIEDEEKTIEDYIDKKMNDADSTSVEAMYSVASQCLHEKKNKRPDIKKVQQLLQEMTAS
pKi: −log10 of the molar value.

{"columns": ["compound", "pKi"],
 "data": [
  ["Cc1nc(C(=O)Nc2cc3c(cc2N2CCOCC2)OC(C)(C)C3)cs1", 7.42],
  ["CC1(C)Cc2cc(NC(=O)c3cccc(F)n3)c(N3CCOCC3)cc2O1", 7.35],
  ["Cc1cnc(C(=O)Nc2cc3c(cc2N2CCOCC2)OC(C)(C)C3)cn1", 6.55],
  ["CC(=O)Nc1cc(-n2ccc(C(=O)Nc3cc4c(cc3N3CCOCC3)OC(C)(C)C4)n2)ccn1", 8.12],
  ["Cc1nc(C(=O)Nc2cc3c(cc2N2CCOCC2)OC(C)(C)C3)co1", 7.74],
  ["CC1(C)Cc2cc(NC(=O)c3cnc4cccnn34)c(N3CCOCC3)cc2O1", 7.44],
  ["CC1(C)Cc2cc(NC(=O)c3n[nH]c4cccnc34)c(N3CCOCC3)cc2O1", 6.31],
  ["CC1(C)Cc2cc(NC(=O)c3cccs3)c(N3CCOCC3)cc2O1", 6.11],
  ["CC1(C)Cc2cc(NC(=O)c3cccc(C(F)(F)F)n3)c(N3CCOCC3)cc2O1", 7.60],
  ["CC1(C)Cc2cc(NC(=O)c3cccc4[nH]nnc34)c(N3CCOCC3)cc2O1", 8.15],
  ["Cc1cc(-c2nc(C(=O)Nc3cc4c(cc3N3CCOCC3)OC(C)(C)C4)co2)ccn1", 8.85],
  ["COc1ccc(-n2ccc(C(=O)Nc3cc4c(cc3N3CCOCC3)OC(C)(C)C4)n2)cn1", 7.54],
  ["CCc1cnc(C(=O)Nc2cc3c(cc2N2CCOCC2)OC(C)(C)C3)[nH]1", 6.96],
  ["CC1(C)Cc2cc(NC(=O)c3cc4ccncc4o3)c(N3CCOCC3)cc2O1", 7.57],
  ["Cc1cncc(C(=O)Nc2cc3c(cc2N2CCOCC2)OC(C)(C)C3)n1", 7.37],
  ["Cn1nnc2c(C(=O)Nc3cc4c(cc3N3CCOCC3)OC(C)(CO)C4)cncc21 (stereo not drawn)", 7.00],
  ["Cc1cn2cccc(C(=O)Nc3cc4c(cc3N3CCOCC3)OC(C)(C)C4)c2n1", 6.57],
  ["C[C@H]1COCCN1c1nc(C(=O)Nc2cc3c(cc2N2CCOCC2)OC(C)(C)C3)co1", 7.46],
  ["CC1(C)Cc2cc(NC(=O)c3ncc(C(C)(C)C)[nH]3)c(N3CCOCC3)cc2O1", 6.70],
  ["Cn1ccc(C(=O)Nc2cc3c(cc2N2CCOCC2)O[C@@](C)(CO)C3)n1 (single isomer, unassigned)", 6.92],
  ["CC1(C)Cc2cc(NC(=O)c3cnccn3)c(N3CCOCC3)cc2O1", 6.54],
  ["CC1(C)Cc2cc(NC(=O)c3csc4c(N)ncnc34)c(N3CCOCC3)cc2O1", 7.89],
  ["COc1cc(-n2ccc(C(=O)Nc3cc4c(cc3N3CCOCC3)OC(C)(C)C4)n2)ccn1", 8.09],
  ["Cc1nc(C(=O)Nc2cc3c(cc2N2CCOCC2)OC(C)(C)C3)ccc1C#N", 7.60],
  ["C[C@]1(CO)Cc2cc(NC(=O)c3ccc4cncnn34)c(N3CCOCC3)cc2O1 (single isomer, unassigned)", 8.11],
  ["CC1(C)Cc2cc(NC(=O)c3cncc4c3nnn4CCO)c(N3CCOCC3)cc2O1", 6.46],
  ["C[C@@]1(CO)Cc2cc(NC(=O)c3csc4cc(Cl)cnc34)c(N3CCOCC3)cc2O1 (stereo in doubt)", 7.72],
  ["CC1(C)Cc2cc(NC(=O)c3ccnc(S(C)(=O)=O)n3)c(N3CCOCC3)cc2O1", 6.28],
  ["CC1(C)Cc2cc(NC(=O)c3coc(-c4ccncn4)n3)c(N3CCOCC3)cc2O1", 7.77],
  ["CC1(C)Cc2cc(NC(=O)c3coc(C4CC4)n3)c(N3CCOCC3)cc2O1", 8.13],
  ["C[C@@]1(CO)Cc2cc(NC(=O)c3ccc4cccnn34)c(N3CCOCC3)cc2O1 (single isomer, unassigned)", 8.47],
  ["CC1(C)Cc2cc(NC(=O)c3c[nH]c4cccnc34)c(N3CCOCC3)cc2O1", 6.33],
  ["CC1COCCN1c1nc(C(=O)Nc2cc3c(cc2N2CCOCC2)OC(C)(C)C3)cs1 (stereo not drawn)", 7.72]
]}
